TEST SUMMARY: CC50 MT4 cytotoxicity (Cell-Titer Glo)
Type: cell-based
MEASUREMENT CONDITIONS: human
What CC50 was measured for each of the following?

[
  {
    "SUBSTANCE SMILES": "CCOC(=O)C(C)(C)OC(=O)OC[C@H]1O[C@@](C#N)(c2ccc3c(N)ncnn23)[C@H](O)[C@@H]1O",
    "CC50": "> 50 µM"
  },
  {
    "SUBSTANCE SMILES": "CC(C)[C@@H]1CC[C@@H](C)C[C@H]1OC(=O)OC[C@H]1O[C@@](C#N)(c2ccc3c(N)ncnn23)[C@H](O)[C@@H]1O",
    "CC50": "21 µM"
  }
]

Now for another entry.
State its CC50: COc1ccc(CCOC(=O)OC[C@H]2O[C@@](C#N)(c3ccc4c(N)ncnn34)[C@H](O)[C@@H]2O)cc1
> 50 µM

---

Tested on: Caco-2 cells (clone C2BBe1)
TEST SUMMARY: CACO-2 permeability
Format: in vitro ADME
Design: unit not given here
MEASUREMENT CONDITIONS: apical to basolateral; donor pH 6.5, receiver pH 7.4
Label rule, in plain words: DM Caco2 A to B of 0.5 and up is Fulfilled, under 0.5 is Not fulfilled.

[
  {
    "SUBSTANCE SMILES": "CCCC(=O)Nc1ncnn2c([C@]3(C#N)O[C@H](COC(=O)OCC(C)C)[C@@H](O)[C@H]3O)ccc12",
    "LABEL CLASS": "Fulfilled"
  },
  {
    "SUBSTANCE SMILES": "CC(C)(OC(=O)OC[C@H]1O[C@@](C#N)(c2ccc3c(N)ncnn23)[C@H](O)[C@@H]1O)c1cccnc1",
    "LABEL CLASS": "Not fulfilled"
  },
  {
    "SUBSTANCE SMILES": "CC(C)(C)OC(=O)OC[C@H]1O[C@@](C#N)(c2ccc3c(N)ncnn23)[C@H](O)[C@@H]1O",
    "LABEL CLASS": "Fulfilled"
  },
  {
    "SUBSTANCE SMILES": "CC(C)OC(=O)OC[C@H]1O[C@@](C#N)(c2ccc3c(NC(=O)OC(C)(C)C)ncnn23)[C@H](OC(=O)OC(C)C)[C@@H]1OC(=O)OC(C)C",
    "LABEL CLASS": "Fulfilled"
  },
  {
    "SUBSTANCE SMILES": "CCC(CC)COC(=O)OC[C@H]1O[C@@](C#N)(c2ccc3c(N)ncnn23)[C@H](O)[C@@H]1O",
    "LABEL CLASS": "Fulfilled"
  }
]

# next compound below
Identify whether the reported DM Caco2 A to B of the following compound is 0.5 or greater: COCCOC(=O)OC[C@H]1O[C@@](C#N)(c2ccc3c(N)ncnn23)[C@H](O)[C@@H]1O
Not fulfilled

---

TEST SUMMARY: GI S9 stability - no PMSF
Format: in vitro ADME
MEASUREMENT CONDITIONS: pH 7.4; human intestinal S9, PMSF-free; read-out: GIS9-HUMAN-NoPMSF T1/2
What log10 of half-life at 2 µM was measured for each of the following?
On a log10 scale: recorded half-life at 2 µM, unit min.

Solved cases below.
[
  {
    "SUBSTANCE SMILES": "Cc1oc(=O)oc1COC(=O)OC[C@H]1O[C@@](C#N)(c2ccc3c(N)ncnn23)[C@H](O)[C@@H]1O",
    "log10 of half-life at 2 µM": -0.31
  },
  {
    "SUBSTANCE SMILES": "CCOC(=O)OC[C@H]1O[C@@](C#N)(c2ccc3c(N)ncnn23)[C@H](OC(=O)OCC)[C@@H]1OC(=O)OCC",
    "log10 of half-life at 2 µM": -0.18
  },
  {
    "SUBSTANCE SMILES": "Cc1ccc(C(C)C)c(OC(=O)OC[C@H]2O[C@@](C#N)(c3ccc4c(N)ncnn34)[C@H](O)[C@@H]2O)c1",
    "log10 of half-life at 2 µM": 0.30
  },
  {
    "SUBSTANCE SMILES": "N#C[C@@]1(c2ccc3c(N)ncnn23)O[C@H](COC(=O)OCC2CCCCC2)[C@@H](O)[C@H]1O",
    "log10 of half-life at 2 µM": -0.16
  },
  {
    "SUBSTANCE SMILES": "CC(C)OC(=O)[C@H](CCOC(=O)OC[C@H]1O[C@@](C#N)(c2ccc3c(N)ncnn23)[C@H](O)[C@@H]1O)N(C)C",
    "log10 of half-life at 2 µM": 2.24
  }
]

Give one value of log10 of half-life at 2 µM per listed molecule.
1. CC(C)OC(=O)Nc1ncnn2c([C@]3(C#N)O[C@H](COC(=O)OC(C)(C)C)[C@@H](O)[C@H]3O)ccc12
2. COc1ccc(OC(=O)OC[C@H]2O[C@@](C#N)(c3ccc4c(N)ncnn34)[C@H](O)[C@@H]2O)cc1

1: 2.26; 2: 0.59

All figures here come from patent US12448383B2.
